- Test system: CAKI-1 renal
- assay.details: NCI tumour cell line growth inhibition, 48 h
reported.metric: TGI

• O=C1c2ccccc2-c2c1c1ccccc1c(=O)n2CCNCCNCCNCCn1c2c(c3ccccc3c1=O)C(=O)c1ccccc1-2 = 4.19 µM
• CC(C)=CCc1c2c(c3occ(-c4ccc(O)cc4)c(=O)c3c1O)CC(C(C)(C)O)O2 (stereo not drawn) = 35.7 µM
• CCOC(=O)/C=C/CC(C)(C)CCOC(C)=O = > 10 µM
• O=c1ccc(-c2ccccc2)n[nH]1 = > 100 µM
• C[C@]12CCC(O)CC1=CC[C@@H]1[C@@H]2CC[C@]2(C)C(=O)[C@H](n3ccnc3)C[C@@H]12 (stereo partly drawn) = > 100 µM
• NC(=O)NCCCC(NC(=O)OCCCCn1ccc(=O)[nH]c1=O)C(=O)O (stereo not drawn) = > 100 µM
• Cc1cc(N(CCC#N)CCC#N)ccc1N=Nc1ccc(S(N)(=O)=O)cc1 = > 100 µM
• C1CN(c2nc3c(nnc4nc(N5CCOCC5)sc43)s2)CCO1 = > 100 µM

###

- Tested on: T-47D breast
- assay.details: NCI tumour cell line growth inhibition, 48 h
reported.metric: TGI

* Cc1cc(Cc2cc(C)c(N)cc2N)c(N)cc1N | > 100 µM
* Cc1cc(-c2nc(C(=O)Nc3cc4oc(N5CCOCC5)nc4nc3N3CC[C@@H](O)C3)co2)ccn1 | > 100 µM
* CCOC(=O)CSc1c(C(=O)OCC)c(=O)n(-c2ccccc2)c(=S)n1-c1ccccc1 | > 100 µM
* COc1cc(C(=O)N(C(=S)OCc2ccccn2)c2ccccc2)cc(OC)c1OC | > 100 µM
* O=C(CCNC12CC3CC(CC(C3)C1)C2)c1ccccc1 | 55.4 µM
* O=[N+]([O-])c1cccc(-c2csc(NNC3=NC/C(=C/c4ccc5c(c4)OCO5)S3)n2)c1 | > 100 µM
* COc1cc(Br)cc2cc(-c3cn4ccsc4n3)c(=O)oc12 | > 100 µM
* CC(=O)O[C@@H]1[C@H](C(C)C)[C@@H](OC(C)=O)C/C(C)=C/CC[C@]2(C)O[C@@H]12 | > 100 µM
* CCN1CCN(Cc2ccc(NC(=O)c3cccc(C#Cc4cccc5[nH]nc(N)c45)c3)cc2C(F)(F)F)CC1 | 3.39 µM
* O=C1/C(=C\c2ccccc2)C(NC2CCCCC2)c2ccccc21 (configuration not stated) | 4.69 µM
* O=c1ccc(-c2ccccc2)n[nH]1 | > 100 µM
* COC(=O)C([C@H](NC1(c2ccccc2)c2ccccc2-c2ccccc21)C(=O)OC)N(NC(=O)OCc1ccccc1)C(=O)OCc1ccccc1 (mixture of isomers) | > 100 µM
* C[C@@H](NC(=O)[C@@H]1C[C@]1(C)COC(=O)c1cc([N+](=O)[O-])cc([N+](=O)[O-])c1)c1cccc2ccccc12 | > 100 µM
* CCOC(=O)C(SCCO)C(C(=O)OCC)n1cnc2c(=O)[nH]c(NC(C)=O)nc21 (configuration not stated) | > 100 µM
* NC(N)=N/N=C/c1c(-c2ccc(N)cc2)nc2sccn12 | 90.3 µM
* [N-]=[N+]=NC[C@H]1OCO[C@H](CN=[N+]=[N-])[C@@H](OCCOCCCl)[C@@H]1OCCOCCCl | > 100 µM
* C=CCN1C[C@H](C)N([C@H](c2ccc(C(=O)NC(CC)CC)cc2)c2cccc(OC)c2)C[C@H]1C | > 100 µM

###

- Tested on: NCI-H23 lung
- assay.details: NCI tumour cell line growth inhibition, 48 h; in the data active = GI50 below about 0.43 µM; inactive = the rest
*1 amine or outer side, *2 acyl side, *3 side chain or, on linkers, in order; H or OH if unused. Where a SMILES comes first, the peptide text is derived from it. Bridges are numbered along the chain shown (N, C = ends). [ ]: non-standard residue; d: D form. The star is where a group is joined. Phe(3,5-F2) = N[C@@H](Cc1cc(F)cc(F)c1)C(=O)O; Pro(4R-Me) = C[C@H]1CN[C@H](C(=O)O)C1; aThr = C[C@H](O)[C@H](N)C(=O)O; Pip = O=C(O)[C@@H]1CCCCN1; X10 = Fc1cc(C2CC2)ccc1N*; CO = O=C([*:1])[*:2]
Outcomes: 1 (yes) (active), 0 (no) (inactive)

- C[C@@H]1C[C@H]2C(=O)O[C@@H](C)[C@H](NC(=O)[C@H](Cc3cc(F)cc(F)c3)NC(=O)Nc3ccc(C4CC4)cc3F)C(=O)N3CCC[C@H]3C(=O)N3CCCC[C@H]3C(=O)N[C@@H](C)C(=O)N2C1 ({X10-CO}-[Phe(3,5-F2)][aThr]P[Pip]A[Pro(4R-Me)]; ester 2-C): 1 (yes)
- NC(N)=NS(=O)(=O)c1ccc(Nc2c3ccccc3nc3c(C(=O)NCCO)cccc23)cc1: 0 (no)
- O=C(Nc1ccc(-n2ccc3c(NC(=O)c4ccccc4)nccc32)cc1)c1ccc(Cl)c(C(F)(F)F)c1: 0 (no)
- C=CCO[C@H]1CO[C@H]2[C@@H]1OC[C@@H]2Oc1ccc(Nc2ccnc(Nc3ccc(O[C@H]4CO[C@H]5[C@@H]4OC[C@@H]5OCC=C)c(Cl)c3)n2)cc1Cl: 0 (no)
- CCC[CH2][Sn]([CH2]CCC)([S]c1cccc2cccnc12)[S]c1cccc2cccnc12: 1 (yes)

###

- System: OVCAR-5 ovarian
- assay.details: NCI tumour cell line growth inhibition, 48 h
reported.metric: TGI (µM)

• CNC(=S)OCCC(C)CCCC(C)C (stereo not given) = 23.9
• C=C(C)C(OC)C(O)CC1(C)CC(O)CC(C)(C2CCC3OC(C4(C)CCC(Br)C(C)(C)O4)CCC3(C)O2)O1 (stereo not given) = 38.7
• O=C(Nc1ccc(-n2ccc3c(NC(=O)c4ccccc4)nccc32)cc1)c1ccc(Cl)c(C(F)(F)F)c1 = 27.3
• ClCCN1CCC2(CC1)SSC1(CCN(CCCl)CC1)S2 = 72

###

- Tested on: HOP-92 NSCLC
- assay.details: NCI tumour cell line growth inhibition, 48 h
Where a SMILES comes first, the peptide text is derived from it. [ ]: non-standard residue; d: D form. The star is where a group is joined. NMeAc5c = CNC1(C(=O)O)CCCC1; Boc = CC(C)(C)OC(=O)*; OBn = c1ccc(CO*)cc1
reported.metric: TGI

- CN(C(=O)C(Cc1ccccc1)NC(=O)OC(C)(C)C)C1(C(=O)NC(Cc2ccccc2)C(=O)OCc2ccccc2)CCCC1 (stereo not drawn) (Boc-Phe-[NMeAc5c]-Phe-OBn; configuration not given here): > 100 µM
- Cc1nc2c(ccc3ncccc32)[nH]1: > 100 µM
- COC(=O)C([C@H](NC1(c2ccccc2)c2ccccc2-c2ccccc21)C(=O)OC)N(NC(=O)OCc1ccccc1)C(=O)OCc1ccccc1 (mixture of isomers): > 100 µM
- C#CCNC(CS)C(=O)O (centres undefined): > 100 µM
- O=C(O)CCC(NC(=O)c1ccc(Nc2nc3ccccc3nc2-c2cccs2)cc1)C(=O)O (centres undefined): > 100 µM
- CC1CCc2nc[nH]c(=O)c21 (centres undefined): > 100 µM
- N#CC1(C#N)N[C@@H](c2ccsc2)[C@H]2C(=O)N(c3ccccc3)C(=O)[C@H]21: > 100 µM
- CCOC(=O)/C=C/CC(C)(C)CCOC(C)=O: > 10 µM
- Nc1c(C(=O)c2cccc(CCS(N)(=O)=O)c2)cnn1-c1ccc(F)cc1: > 25 µM

###

- Tested on: SK-MEL-28 melanoma
- assay.details: NCI tumour cell line growth inhibition, 48 h
Where a SMILES comes first, the peptide text is derived from it. [ ]: non-standard residue; d: D form. The star is where a group is joined. NMeAc5c = CNC1(C(=O)O)CCCC1; Boc = CC(C)(C)OC(=O)*; OBn = c1ccc(CO*)cc1
The compounds listed here are annotated with their TGI.
reported.metric: TGI

* COc1ccc(N/N=C2\CCOc3ccc(C)cc3C2=O)cc1 | > 100 µM
* Cc1cc(NS(=O)(=O)c2ccc(Nc3c4ccccc4nc4c(C(=O)N5CCN(CCOS(C)(=O)=O)CC5)cccc34)cc2)no1 | > 100 µM
* CC(=O)OC1OC([C@@H]2c3cccc(O)c3C(=O)c3c(O)cc(C)cc32)C(O)C(O)C1O (stereo not given in full) | 3.6 µM
* CC1(C)C(=O)/C=C\C(=O)C(C)(C)C2=CC=C(O2)C(C)(C)C(=O)/C=C\C(=O)C(C)(C)C2=CC=C1O2 | > 100 µM
* N#CCCC1C(C#N)C2(Cl)CC1(Cl)C(Cl)=C2Cl (stereo not given) | > 10 µM
* NC1=NCCC1(c1ccccc1)c1ccccn1 (stereo not given) | > 100 µM
* O=[N+]([O-])c1ccc2c(c1)c(OCc1ccccc1)nn2Cc1ccccc1 | > 100 µM
* Nc1c(C(=O)c2cccc(CCS(N)(=O)=O)c2)cnn1-c1ccc(F)cc1 | > 25 µM
* O=C(CCc1nc(=S)[nH][nH]1)Nc1ccc(Cl)c(Cl)c1 | > 100 µM
* CNC(=S)OCCC(C)CCCC(C)C (stereo not given) | 41 µM
* Fc1[nH]nc2ccc([C@@H]3Nc4ccc5[nH]ncc5c4[C@H]4C5CCC(C5)[C@@H]34)cc12 (stereo not given in full) | 16.2 µM
* Cc1cc(N(CCC#N)CCC#N)ccc1N=Nc1ccc(S(N)(=O)=O)cc1 | > 100 µM
* ClCCN1CCC2(CC1)SSC1(CCN(CCCl)CC1)S2 | > 100 µM
* Cc1n[nH]c(=O)n1/N=C/c1ccc(Cl)cc1 | > 100 µM
* C[C@@H](NC(=O)[C@@H]1C[C@]1(C)COC(=O)c1cc([N+](=O)[O-])cc([N+](=O)[O-])c1)c1cccc2ccccc12 | > 100 µM
* C=CCOc1ccc2c(C)cc(=O)oc2c1C | > 100 µM
* OC1CSSC1Cn1cnc2c(Nc3ccc(OCc4cccc(F)c4)c(Cl)c3)ncnc21 (stereo not given) | 4.64 µM
* OCCN(CCO)c1ncnc2c1ncn2Cc1ccc(CCl)cc1 | 63.8 µM
* CN1C(=O)C2CCC(=O)N2c2cccnc21 (stereo not given) | > 100 µM
* COC1/C=C/OC2(C)Oc3c(C)c(O)c4c(O)c(c(/C=N/Nc5ccc([N+](=O)[O-])cc5[N+](=O)[O-])c(O)c4c3C2=O)NC(=O)C(C)=C/C=C/C(C)C(O)C(C)C(O)C(C)C(OC(C)=O)C1C (stereo not given) | 5.23 µM
* CC1(C)N=[N+]([O-])C1(C)C | > 100 µM
* CN1CCN(C2=NCCO2)CC1 | > 100 µM
* CN(C(=O)C(Cc1ccccc1)NC(=O)OC(C)(C)C)C1(C(=O)NC(Cc2ccccc2)C(=O)OCc2ccccc2)CCCC1 (stereo not drawn) (Boc-Phe-[NMeAc5c]-Phe-OBn; configuration not given here) | > 100 µM
* FC(F)(F)c1cccc(Nc2nc(-c3ccccc3)nc3ncccc23)c1 | 74.4 µM
* OCc1cc2ccccc2c2c3c(ccc12)OCO3 | 350 µM
* COc1ccc(-c2cc(O)c3nc4ccccc4n3c2)cc1 | > 100 µM
* COc1cc(Br)cc2cc(-c3cn4ccsc4n3)c(=O)oc12 | > 100 µM
* COC(=O)c1cc(=O)nc2sc3cccc(C)c3n12 | > 100 µM
* O=C(CCN1CCCCC1)C(=Cc1ccccc1)C(=O)CCN1CCCCC1 | > 100 µM
* CNS(=O)(=O)NNS(=O)(=O)c1ccccc1 | > 100 µM
